EC50 values by entry
Tested on: Athelia rolfsii
Test: Antifungal activity against Athelia rolfsii assessed as inhibition of fungal growth
Format: functional
Settings: Agroathelia rolfsii; read-out: ED50 (the source's name)
Please state the figure in mg/L; there is no need to write the unit.

Reference set (5 entries):
CCCCCc1cc(C)cc(=O)o1    22.4
Cc1cc(C(C)C)oc(=O)c1    313
CCCCC(O)(Cn1cncn1)c1ccc(Cl)cc1Cl (stereo not given)    18.3
C=C(C)c1cc(C)cc(=O)o1    180
CCCCCCCCc1cc(C)cc(=O)o1    122

**Q:** EC50 for "Cc1cc(CC(C)C)oc(=O)c1" ?
**A:** 39.5

**Q:** Next compound: "CCCCc1cc(C)cc(=O)o1"
**A:** 78

**Q:** Next compound: "Cc1cc(CCl)oc(=O)c1"
**A:** 46.9

**Q:** Next compound: "CC(C)=Cc1cc(C)cc(=O)o1"
**A:** 323

**Q:** Next compound: "CCCCCCc1cc(C)cc(=O)o1"
**A:** 15.1

**Q:** Next compound: "CCCCCCCCCc1cc(C)cc(=O)o1"
**A:** 397

**Q:** Next compound: "CCCCCCCc1cc(C)cc(=O)o1"
**A:** 30.7

**Q:** Next compound: "CCCCCCCCCCc1cc(C)cc(=O)o1"
**A:** 562

**Q:** Next compound: CCCCC(CC)c1cc(C)cc(=O)o1 (stereo not given)
**A:** 349

**Q:** Next compound: "CCCc1cc(C)cc(=O)o1"
**A:** 251
